Assay: β-sheet content by ATR-FT-IR
Assay type: physicochemical
Settings: Fig. S7 panel A; β-sheet content by ATR-FT-IR
Would you kindly list b -sheet / % for each of these substances?
# value in %; strip the unit string

Form field b -sheet / %, entry KKFQKKFQ : 40.421

Form field b -sheet / %, entry KAKAQANM : 32.8491

Form field b -sheet / %, entry CKFKFQFNMW : 47.7253

Form field b -sheet / %, entry KIKIQINMWA : 49.91

Form field b -sheet / %, entry QCKAKAQA : 34.06

Form field b -sheet / %, entry CKIKIQINMW : 42.9134

Form field b -sheet / %, entry EIKIQINM : 48.03

Form field b -sheet / %, entry EIEIQINM : 53.87

Form field b -sheet / %, entry RLRLTLC : 20.6858

Form field b -sheet / %, entry PPFHPPPFHP : 46.6563

Form field b -sheet / %, entry KLKLKLQL : 42.3363

Form field b -sheet / %, entry KIKIQINMWWWQ : 47.92

Form field b -sheet / %, entry IKVAVKIKIQINM : 58.1

Form field b -sheet / %, entry NMWQKAKAQA : 37.34

Form field b -sheet / %, entry RGECKFKFQF : 46.18

Form field b -sheet / %, entry KIKIQIII : 45.8425

Form field b -sheet / %, entry KFKFKFQF : 39.76

Form field b -sheet / %, entry QCKIKIQINM : 37.11

Form field b -sheet / %, entry KIKIQIMWNQ : 41.4

Form field b -sheet / %, entry KIKIQINMWQ : 42.41

Form field b -sheet / %, entry CKIKIQIRGD : 58.14

* * *

Test: Aggregate analysis by widefield fluorescence microscopy
Type: physicochemical
Settings: Fig S8 panels A, C
// map Median Area in 3 * (1330 µm *1330 µm) to label using lower range: < 20; middle range: ≥ 20 and < 40; upper range: ≥ 40

Dear colleague, I would appreciate it if you could identify the bin for CKFKQFFNM [CK14] and reply at your convenience.
lower range

Dear colleague, I would appreciate it if you could identify the bin for HHHHKIKIQINMYYYY [TM16] and reply at your convenience.
middle range

Dear colleague, I would appreciate it if you could identify the bin for CKFKFQFW [TM72] and reply at your convenience.
lower range

Dear colleague, I would appreciate it if you could identify the bin for CKIKQII [MG4a] and reply at your convenience.
middle range

Dear colleague, I would appreciate it if you could identify the bin for KWKWQW [KB3] and reply at your convenience.
upper range

Dear colleague, I would appreciate it if you could identify the bin for CQFQFQF [QBL4] and reply at your convenience.
lower range

Dear colleague, I would appreciate it if you could identify the bin for CKFKFQF [BL4] and reply at your convenience.
middle range

Dear colleague, I would appreciate it if you could identify the bin for HIHIQIC [CN12] and reply at your convenience.
upper range

Dear colleague, I would appreciate it if you could identify the bin for CKAKAQANMWQ [BL8] and reply at your convenience.
upper range

Dear colleague, I would appreciate it if you could identify the bin for CKWKWQW [KB4] and reply at your convenience.
middle range

* * *

Would you kindly list Fibril for each of these substances?
Assay type: physicochemical
Design: key: 1 = fibrils present; 0 non-fibrillar structures
Details: Fig S10 panel E
Give the value as a plain number.

Form field Fibril, entry KFKFQFNM : 1

Form field Fibril, entry CKFKFQF : 1

Form field Fibril, entry RLRLTLC : 1

Form field Fibril, entry QCKAKAQANM : 0

Form field Fibril, entry CKIKQII : 1

Form field Fibril, entry CSISIQINM : 1

Form field Fibril, entry CKIKIQI : 1

Form field Fibril, entry KIKQIINM : 1

Form field Fibril, entry EIKIQINM : 1

Form field Fibril, entry CEIEIQINMWQ : 1

Form field Fibril, entry QCKAKAQANMWQ : 0

Form field Fibril, entry KIKQII : 0

Form field Fibril, entry RGDKIKIQIC : 1

Form field Fibril, entry KAKAQANMWQ : 0

Form field Fibril, entry RGDKIRGDKI : 0

Form field Fibril, entry CKIKIQINM : 1

Form field Fibril, entry MDQMDQMDQMDQMDQ : 0

Form field Fibril, entry CKFKFQFNMWQ : 1

Form field Fibril, entry KIKIQIII : 1

Form field Fibril, entry CSISIQI : 1

Form field Fibril, entry QCKFKQFFNMWQ : 1

* * *

Would you kindly list Zeta Count Rate Category for each of these substances?
Experiment: Turbidity, derived count rate of scattered light
Assay type: physicochemical
Conditions: key not given
Give the value as a plain number.

Form field Zeta Count Rate Category, entry CKIKQIINMWQ [MG5a / CK17] : 1

Form field Zeta Count Rate Category, entry KIKIQIII [TG7] : 0

Form field Zeta Count Rate Category, entry RGDKIKIQINM [MG8a / CN17] : 0

Form field Zeta Count Rate Category, entry KIKQIINMWQ [JG2] : 1

Form field Zeta Count Rate Category, entry EIEIQINMWQ [VH8] : 1

Form field Zeta Count Rate Category, entry CEFEFQF [KB12] : 1

Form field Zeta Count Rate Category, entry CKIKIQI [MG3b] : 1

Form field Zeta Count Rate Category, entry CEIEIQI [AR2/ TM142] : 0

Form field Zeta Count Rate Category, entry KIKIQII [TG1 / (KM4)] : 1

Form field Zeta Count Rate Category, entry KFKFQFFF [TG12] : 1

Form field Zeta Count Rate Category, entry KVKVQVV [TG2] : 0

* * *

Assay: Zeta-potential measurement
Type: physicochemical
Conditions: zeta-potential of the peptide assemblies; mean; Figure 3A source data
OBSERVABLE: Zeta-Potential / mV (mV)
# value in mV; strip the unit string

Form field Zeta-Potential / mV, entry MDQMDQMDQMDQMDQ : -14.98

Form field Zeta-Potential / mV, entry CRFRVPF : 4.41

Form field Zeta-Potential / mV, entry KIKIQIAMWQ : 11.3

Form field Zeta-Potential / mV, entry CKWKWQW : 14.7

Form field Zeta-Potential / mV, entry KIKIQIII : 19.8

Form field Zeta-Potential / mV, entry CKIKQIINMWQ : 13.4

Form field Zeta-Potential / mV, entry KFKFQFNMW : 22.6

Form field Zeta-Potential / mV, entry KIKIQINM : 8.51

Form field Zeta-Potential / mV, entry RGDSGGGGGGKIKIQIC : 16.7

Form field Zeta-Potential / mV, entry KFKFKFQF : 15.2

Form field Zeta-Potential / mV, entry EIKIQINM : -22.33

Form field Zeta-Potential / mV, entry HHHHKIKIKIKIWWWW : 14.5

Form field Zeta-Potential / mV, entry ILKNLSRSRKIKIQIC : 18

Form field Zeta-Potential / mV, entry KAKAQANMWQ : -19.63

Form field Zeta-Potential / mV, entry CKIKIQIII : 16.2

Form field Zeta-Potential / mV, entry QCKIKQIINMWQ [reference compound] : 6.64

Form field Zeta-Potential / mV, entry EIEIEIEI : -8.92

Form field Zeta-Potential / mV, entry KIKIQINAWQ : 13.1

Form field Zeta-Potential / mV, entry NMWQKFKFQF : 9.56

Form field Zeta-Potential / mV, entry CKAKAQANMWQ : 0.74

* * *

Assay: Aggregate analysis by widefield fluorescence microscopy
Type: physicochemical
Conditions: Fig S8 panels B, D; total area of all particles, 3 fields of 1330 µm x 1330 µm
# note: boundary value 8000 maps to no (0); Total Area of all particles in 3 * (1330 µm *1330 µm) below it maps to yes (1)

Decide: Total Area of all particles in 3 * (1330 µm *1330 µm) of KIKIQIC [TM112 / CN11] strictly below 8000?
yes (1)

Decide: Total Area of all particles in 3 * (1330 µm *1330 µm) of KIKQIINMWQ [JG2] strictly below 8000?
no (0)

Decide: Total Area of all particles in 3 * (1330 µm *1330 µm) of HHHHKIKIKIKIWWWW [TM4] strictly below 8000?
no (0)

Decide: Total Area of all particles in 3 * (1330 µm *1330 µm) of HHHHKIKIKIKIYYYY [TM6] strictly below 8000?
no (0)

Decide: Total Area of all particles in 3 * (1330 µm *1330 µm) of KIKIQIN [JGB3] strictly below 8000?
yes (1)

Decide: Total Area of all particles in 3 * (1330 µm *1330 µm) of QCKAKAQA [CK24] strictly below 8000?
yes (1)

Decide: Total Area of all particles in 3 * (1330 µm *1330 µm) of CKIKQIINMWQ [MG5a / CK17] strictly below 8000?
no (0)

Decide: Total Area of all particles in 3 * (1330 µm *1330 µm) of CKFKFQFW [TM72] strictly below 8000?
no (0)

Decide: Total Area of all particles in 3 * (1330 µm *1330 µm) of CKFKFQFNM [BL3] strictly below 8000?
yes (1)

Decide: Total Area of all particles in 3 * (1330 µm *1330 µm) of CKFKQFF [CK15] strictly below 8000?
no (0)

Decide: Total Area of all particles in 3 * (1330 µm *1330 µm) of CHLHLQL [CN9] strictly below 8000?
no (0)

Decide: Total Area of all particles in 3 * (1330 µm *1330 µm) of HIHIQIC [CN12] strictly below 8000?
no (0)

Decide: Total Area of all particles in 3 * (1330 µm *1330 µm) of CKIKQII [MG4a] strictly below 8000?
no (0)

Decide: Total Area of all particles in 3 * (1330 µm *1330 µm) of CQFQFQF [QBL4] strictly below 8000?
yes (1)

Decide: Total Area of all particles in 3 * (1330 µm *1330 µm) of QCKFKQFFNMWQ [CK10] strictly below 8000?
no (0)

Decide: Total Area of all particles in 3 * (1330 µm *1330 µm) of CKFKFQF [BL4] strictly below 8000?
no (0)

Decide: Total Area of all particles in 3 * (1330 µm *1330 µm) of CKAKAQANMWQ [BL8] strictly below 8000?
yes (1)

Decide: Total Area of all particles in 3 * (1330 µm *1330 µm) of KIKQIIN [JGA3] strictly below 8000?
yes (1)

Decide: Total Area of all particles in 3 * (1330 µm *1330 µm) of KWKWQW [KB3] strictly below 8000?
yes (1)

Decide: Total Area of all particles in 3 * (1330 µm *1330 µm) of QCKIKIQINMWQ [EF-C opt] strictly below 8000?
no (0)

Decide: Total Area of all particles in 3 * (1330 µm *1330 µm) of CKWKWQW [KB4] strictly below 8000?
no (0)

Decide: Total Area of all particles in 3 * (1330 µm *1330 µm) of CKFKQFFNM [CK14] strictly below 8000?
no (0)

Decide: Total Area of all particles in 3 * (1330 µm *1330 µm) of QCKIKQIINMWQ [reference compound] strictly below 8000?
no (0)

Decide: Total Area of all particles in 3 * (1330 µm *1330 µm) of KFKFQFNMWQ [JG4] strictly below 8000?
no (0)

Decide: Total Area of all particles in 3 * (1330 µm *1330 µm) of RGDSGGGGGGKIKIQIC [TM114 / RC17] strictly below 8000?
no (0)

Decide: Total Area of all particles in 3 * (1330 µm *1330 µm) of HHHHKIKIQINMYYYY [TM16] strictly below 8000?
no (0)

Decide: Total Area of all particles in 3 * (1330 µm *1330 µm) of CKIKIQI [MG3b] strictly below 8000?
no (0)

Decide: Total Area of all particles in 3 * (1330 µm *1330 µm) of CSISIQI [TM141] strictly below 8000?
no (0)
